Ref: the MegaScale stability set (Tsuboyama et al. 2023)

B1: EHEE_rd4_0726 (parent)
chain: DIEITTNGEEDAKRVIKELQKRNLEYHIEVHGNQWVIKVR

# Variants of: B1
# Run description: folding stability dG (cDNA display proteolysis); higher = more stable
# Assay setup: PBS, room temperature
Reported endpoint: folding stability dG

seq="DIEITTNGEEDAKRVIKVLQKRNLEYHIEVHGNQWVIKVR [E18V]" reported_endpoint="folding stability dG" endpoint_value="2.32 kcal/mol"
seq="DIEITTNGEEDAKRVIKELQKRNLEYHIGVHGNQWVIKVR [E29G]" reported_endpoint="folding stability dG" endpoint_value="0.743 kcal/mol"
seq="DIEITTNGEEDAKRVIKELQKRNLEYHIEVLGNQWVIKVR [H31L]" reported_endpoint="folding stability dG" endpoint_value="2.27 kcal/mol"
seq="DIEITTNGEEDAKRVIKELQKRNLEYHIEVHGNQWKIKVR [V36K]" reported_endpoint="folding stability dG" endpoint_value="1.67 kcal/mol"
seq="DIEITTNGEERAKRVIKELQKRNLEYHIEVHGNQWVIKVR [D11R]" reported_endpoint="folding stability dG" endpoint_value="1.99 kcal/mol"
seq="DIEITTNGEEDAKRVIKELQKRNLEYHIEVHGNQSVIKVR [W35S]" reported_endpoint="folding stability dG" endpoint_value="0.359 kcal/mol"
seq="DIEITTNGEEDAKRVIKELQKRALEYHIEVHGNQWVIKVR [N23A]" reported_endpoint="folding stability dG" endpoint_value="2.03 kcal/mol"
seq="DIEITTNGEEDAKRVIKELQKRNLEYDIEVHGNQWVIKVR [H27D]" reported_endpoint="folding stability dG" endpoint_value="2.48 kcal/mol"
seq="DIEITTNGEEDAKRVIKFLQKRNLEYHIEVHGNQWVIKVR [E18F]" reported_endpoint="folding stability dG" endpoint_value="2.73 kcal/mol"
seq="DIEITTNGEEDAKRVIKELTKRNLEYHIEVHGNQWVIKVR [Q20T]" reported_endpoint="folding stability dG" endpoint_value="2.17 kcal/mol"
seq="DIEITENGEEDAKRVIKELQKRNLEYHIEVHGNQWVIKVR [T6E]" reported_endpoint="folding stability dG" endpoint_value="0.908 kcal/mol"
seq="DIEITTNGEEDAQRVIKELQKRNLEYHIEVHGNQWVIKVR [K13Q]" reported_endpoint="folding stability dG" endpoint_value="2.52 kcal/mol"
seq="DIEITTNGEEDAKRVIKELHKRNLEYHIEVHGNQWVIKVR [Q20H]" reported_endpoint="folding stability dG" endpoint_value="1.85 kcal/mol"
seq="DIEITTQGEEDAKRVIKELQKRNLEYHIEVHGNQWVIKVR [N7Q]" reported_endpoint="folding stability dG" endpoint_value="2.4 kcal/mol"
seq="DIEITNNGEEDAKRVIKELQKRNLEYHIEVHGNQWVIKVR [T6N]" reported_endpoint="folding stability dG" endpoint_value="0.494 kcal/mol"
seq="DIEITWNGEEDAKRVIKELQKRNLEYHIEVHGNQWVIKVR [T6W]" reported_endpoint="folding stability dG" endpoint_value="1.04 kcal/mol"
seq="DIEITTNGEEDAKRVIKELQKRFLEYHIEVHGNQWVIKVR [N23F]" reported_endpoint="folding stability dG" endpoint_value="1.92 kcal/mol"
seq="DIEITTNGEEDAKRVIKELQKRNLEYHIHVHGNQWVIKVR [E29H]" reported_endpoint="folding stability dG" endpoint_value="1.78 kcal/mol"
seq="DIEITTNGEEDAKRVIKELQKRNLEYIIEVHGNQWVIKVR [H27I]" reported_endpoint="folding stability dG" endpoint_value="2.84 kcal/mol"
seq="DIEITTNGEEDAKRVIKELQKRNLEYHIEVSGNQWVIKVR [H31S]" reported_endpoint="folding stability dG" endpoint_value="2.12 kcal/mol"
seq="DIEYTTNGEEDAKRVIKELQKRNLEYHIEVHGNQWVIKVR [I4Y]" reported_endpoint="folding stability dG" endpoint_value="2.15 kcal/mol"
seq="DIEITTNGEEDAKRVIKELQKRNLEYHIEVHGNQCVIKVR [W35C]" reported_endpoint="folding stability dG" endpoint_value="1.35 kcal/mol"
seq="DIEITTNGEEDAKRVIKELQKRNLEYHIEVHGNEWVIKVR [Q34E]" reported_endpoint="folding stability dG" endpoint_value="1.85 kcal/mol"
seq="DMEITTNGEEDAKRVIKELQKRNLEYHIEVHGNQWVIKVR [I2M]" reported_endpoint="folding stability dG" endpoint_value="2.43 kcal/mol"
seq="DIEITTNGEEDAKRVIKEHQKRNLEYHIEVHGNQWVIKVR [L19H]" reported_endpoint="folding stability dG" endpoint_value="-0.603 kcal/mol"
seq="DIEITMNGEEDAKRVIKELQKRNLEYHIEVHGNQWVIKVR [T6M]" reported_endpoint="folding stability dG" endpoint_value="2.38 kcal/mol"
seq="DIEITTNGEEDAKRVIKELQKRNLEYHIEVHGNQWVIKAR [V39A]" reported_endpoint="folding stability dG" endpoint_value="1.06 kcal/mol"
seq="DIEITTNGEEDAKRVIKELQARNLEYHIEVHGNQWVIKVR [K21A]" reported_endpoint="folding stability dG" endpoint_value="2.54 kcal/mol"
seq="DIEITTNGEEDAKRMIKELQKRNLEYHIEVHGNQWVIKVR [V15M]" reported_endpoint="folding stability dG" endpoint_value="1.79 kcal/mol"
seq="DIEITLNGEEDAKRVIKELQKRNLEYHIEVHGNQWVIKVR [T6L]" reported_endpoint="folding stability dG" endpoint_value="2.84 kcal/mol"
seq="DIEITTNGEEDAKRVIKELQKRNLEYHIEVHGNNWVIKVR [Q34N]" reported_endpoint="folding stability dG" endpoint_value="2.21 kcal/mol"
seq="PIEITTNGEEDAKRVIKELQKRNLEYHIEVHGNQWVIKVR [D1P]" reported_endpoint="folding stability dG" endpoint_value="2.29 kcal/mol"
seq="DIEQTTNGEEDAKRVIKELQKRNLEYHIEVHGNQWVIKVR [I4Q]" reported_endpoint="folding stability dG" endpoint_value="0.094 kcal/mol"
seq="DIEITTNGEETAKRVIKELQKRNLEYHIEVHGNQWVIKVR [D11T]" reported_endpoint="folding stability dG" endpoint_value="2.05 kcal/mol"
seq="DIEITTNGEEDAKRVIKRLQKRNLEYHIEVHGNQWVIKVR [E18R]" reported_endpoint="folding stability dG" endpoint_value="2.01 kcal/mol"
seq="DIEITTNGEEDAKRVIKELSKRNLEYHIEVHGNQWVIKVR [Q20S]" reported_endpoint="folding stability dG" endpoint_value="1.9 kcal/mol"
seq="DIEITTNGEEDAKFVIKELQKRNLEYHIEVHGNQWVIKVR [R14F]" reported_endpoint="folding stability dG" endpoint_value="2.24 kcal/mol"
seq="DIEITTNGEEDAKRVIKELQKRNLEYNIEVHGNQWVIKVR [H27N]" reported_endpoint="folding stability dG" endpoint_value="2.17 kcal/mol"
seq="DIEITTNGEEDAKRVIKELQQRNLEYHIEVHGNQWVIKVR [K21Q]" reported_endpoint="folding stability dG" endpoint_value="2.23 kcal/mol"
seq="DIEITTNGEEDAIRVIKELQKRNLEYHIEVHGNQWVIKVR [K13I]" reported_endpoint="folding stability dG" endpoint_value="2.52 kcal/mol"
seq="DIEITTNGEEDAKRVIKELQKRNLEYHIRVHGNQWVIKVR [E29R]" reported_endpoint="folding stability dG" endpoint_value="1.77 kcal/mol"
seq="DIEITTNGERDAKRVIKELQKRNLEYHIEVHGNQWVIKVR [E10R]" reported_endpoint="folding stability dG" endpoint_value="2.18 kcal/mol"
seq="DIEMTTNGEEDAKRVIKELQKRNLEYHIEVHGNQWVIKVR [I4M]" reported_endpoint="folding stability dG" endpoint_value="1.23 kcal/mol"
seq="DIEITTNGEEDAKRVIKELQKRNLEYHIWVHGNQWVIKVR [E29W]" reported_endpoint="folding stability dG" endpoint_value="1.82 kcal/mol"
seq="DIEITTNGEEDAKRVIKELQKRNLEYHIEVHLNQWVIKVR [G32L]" reported_endpoint="folding stability dG" endpoint_value="1.38 kcal/mol"
seq="DIEITTNGEEDAKRVIKELQKRNLEYHIEVIGNQWVIKVR [H31I]" reported_endpoint="folding stability dG" endpoint_value="2.72 kcal/mol"
seq="DIEITTNKEEDAKRVIKELQKRNLEYHIEVHGNQWVIKVR [G8K]" reported_endpoint="folding stability dG" endpoint_value="2.02 kcal/mol"
seq="DIEITTNGEEDAKYVIKELQKRNLEYHIEVHGNQWVIKVR [R14Y]" reported_endpoint="folding stability dG" endpoint_value="2.2 kcal/mol"
seq="DIEITTNGEEDAKRVIKELQKRNLEGHIEVHGNQWVIKVR [Y26G]" reported_endpoint="folding stability dG" endpoint_value="0.722 kcal/mol"
seq="DIEITTNGEEDAKRVIKELQKRNLEYHEEVHGNQWVIKVR [I28E]" reported_endpoint="folding stability dG" endpoint_value="-0.159 kcal/mol"
seq="DIEITTNGEEDAKRVIKELQKYNLEYHIEVHGNQWVIKVR [R22Y]" reported_endpoint="folding stability dG" endpoint_value="2.62 kcal/mol"
seq="DIEITTNGEEDAKRVIKELQKRNLEYHIENHGNQWVIKVR [V30N]" reported_endpoint="folding stability dG" endpoint_value="1.57 kcal/mol"
seq="DYEITTNGEEDAKRVIKELQKRNLEYHIEVHGNQWVIKVR [I2Y]" reported_endpoint="folding stability dG" endpoint_value="3.27 kcal/mol"
seq="DIEITTNGEEDALRVIKELQKRNLEYHIEVHGNQWVIKVR [K13L]" reported_endpoint="folding stability dG" endpoint_value="2.76 kcal/mol"
seq="DIEITTNGEEDAKRVIKELQKRNLEYHIYVHGNQWVIKVR [E29Y]" reported_endpoint="folding stability dG" endpoint_value="2.26 kcal/mol"
seq="DIEITTNGEEDAKRVIKELQKRNLEYHIEWHGNQWVIKVR [V30W]" reported_endpoint="folding stability dG" endpoint_value="1.81 kcal/mol"
seq="DIEITTNGECDAKRVIKELQKRNLEYHIEVHGNQWVIKVR [E10C]" reported_endpoint="folding stability dG" endpoint_value="2.43 kcal/mol"
seq="DIEITTNGEEDAPRVIKELQKRNLEYHIEVHGNQWVIKVR [K13P]" reported_endpoint="folding stability dG" endpoint_value="0.028 kcal/mol"
seq="DIEITTNGEEDAKRVIKELQKRNLEYHIEVHGNHWVIKVR [Q34H]" reported_endpoint="folding stability dG" endpoint_value="2.36 kcal/mol"
seq="DIEITTNGEEDAKRVIKELQKRNLEYHIEVHHNQWVIKVR [G32H]" reported_endpoint="folding stability dG" endpoint_value="1.39 kcal/mol"
seq="DIEITTNGEEDAKRVIKQLQKRNLEYHIEVHGNQWVIKVR [E18Q]" reported_endpoint="folding stability dG" endpoint_value="2.19 kcal/mol"
